# test-target: beta-catenin/TCF4 engagement (Homo sapiens)
# Construct: expressed in transfected cells; host or cells: HEK293
# Sequence (P35222 whole entry): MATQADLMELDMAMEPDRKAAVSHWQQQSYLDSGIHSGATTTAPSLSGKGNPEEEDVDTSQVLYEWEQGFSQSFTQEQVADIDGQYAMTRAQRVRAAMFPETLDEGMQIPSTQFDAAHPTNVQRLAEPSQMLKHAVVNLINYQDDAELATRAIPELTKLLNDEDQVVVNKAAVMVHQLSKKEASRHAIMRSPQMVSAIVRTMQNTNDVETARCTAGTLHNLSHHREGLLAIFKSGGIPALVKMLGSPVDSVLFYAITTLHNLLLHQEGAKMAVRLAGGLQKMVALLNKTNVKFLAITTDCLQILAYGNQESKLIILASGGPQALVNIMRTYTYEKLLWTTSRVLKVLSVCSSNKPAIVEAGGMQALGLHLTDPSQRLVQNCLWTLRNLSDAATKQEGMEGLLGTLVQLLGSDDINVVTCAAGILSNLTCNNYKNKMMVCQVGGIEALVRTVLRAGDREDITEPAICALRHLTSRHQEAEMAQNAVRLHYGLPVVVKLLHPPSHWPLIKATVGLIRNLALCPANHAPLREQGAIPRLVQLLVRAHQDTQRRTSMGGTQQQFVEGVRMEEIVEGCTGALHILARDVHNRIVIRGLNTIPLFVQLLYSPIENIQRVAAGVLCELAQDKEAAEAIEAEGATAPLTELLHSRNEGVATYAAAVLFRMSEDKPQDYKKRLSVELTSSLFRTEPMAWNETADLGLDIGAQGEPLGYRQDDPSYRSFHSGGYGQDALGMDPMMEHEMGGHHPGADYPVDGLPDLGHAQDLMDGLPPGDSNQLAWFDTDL
# assay-comment: Nano-BRET target engagement assay (B-cat-Halo & TCF4-Luc in HEK293 cells)
# Type: cell-based
# condition-parameters: absolute IC50; read-out: NanoBRET Abs IC50
Threshold 10 µM. IC50 below it: Yes. IC50 at it or above: No.

Is IC50 of CC[C@H](C)[C@@H]1NC(=O)[C@H](CC(=O)O)NC(=O)[C@]2(CC=CCCCC3(CCCC=CCCCCCC[C@@](C)(C(=O)N[C@@H](Cc4ccsc4)C(=O)N[C@@H](Cc4csc5ccccc45)C(=O)N[C@@H](Cc4c[nH]cn4)C(N)=O)NC(=O)[C@H](CC(N)=O)NC(=O)[C@H](Cc4ccccc4)NC(=O)[C@H](C)NC(=O)[C@H](C)NC(=O)[C@H](CCC(=O)O)NC(=O)[C@H](CC(=O)O)NC3=O)NC1=O)CCCN2C(C)=O (some centres unmarked) [I-517] strictly below 10 µM?
Yes

CC(=O)N1CCC[C@]12CC=CCCCC1(CCCC=CCCCCCC[C@@](C)(C(=O)N[C@@H](Cc3ccccc3)C(=O)N[C@@H](Cc3csc4ccccc34)C(=O)N[C@@H](CCC(N)=O)C(N)=O)NC(=O)[C@H](CCO)NC(=O)[C@H](Cc3ccccc3)NC(=O)[C@H](C)NC(=O)[C@H](C)NC(=O)[C@H](CCC(=O)O)NC(=O)[C@H](CC(=O)O)NC1=O)NC(=O)[C@H](CCC(C)C)NC(=O)[C@H](CC(=O)O)NC2=O (some centres unmarked) [I-1538] , same question.
No

CC(=O)N1CCC[C@]12CC=CCCCC1(CCCC=CCCCCCC[C@@](C)(C(=O)N[C@@H](Cc3ccccc3)C(=O)N[C@@H](Cc3csc4ccccc34)C(=O)N[C@H](C(N)=O)[C@@H](C)O)NC(=O)[C@H](CC(N)=O)NC(=O)[C@H](Cc3ccccc3)NC(=O)[C@H](C)NC(=O)[C@H](C)NC(=O)[C@H](CCC(=O)O)NC(=O)[C@H](CC(=O)O)NC1=O)NC(=O)[C@H](CC(C)C)NC(=O)[C@H](CC(=O)O)NC2=O (some centres unmarked) [I-749] , same question.
Yes

CC(=O)N1CCC[C@]12CC=CCCCC1(CCCC=CCCCOC(=O)N3CC[C@@](C(=O)N[C@@H](Cc4ccsc4)C(=O)N[C@@H](Cc4csc5ccccc45)C(=O)N[C@H](C(N)=O)[C@@H](C)O)(C3)NC(=O)[C@H](CC(N)=O)NC(=O)[C@H](Cc3ccccc3)NC(=O)[C@H](C)NC(=O)C(C)(C)NC(=O)[C@H]([C@@H](C)O)NC(=O)[C@H](CC(N)=O)NC1=O)NC(=O)[C@H](CC(C)(C)C)NC(=O)[C@H](CC(=O)O)NC2=O (some centres unmarked) [I-2416] , same question.
No

CC(=O)N1CCC[C@]12CC=CCCCC1(CCCC=CCCCOC(=O)N3CC[C@@](C(=O)N[C@@H](Cc4ccsc4)C(=O)N[C@@H](Cc4csc5ccccc45)C(=O)N[C@@H](CO)C(N)=O)(C3)NC(=O)[C@H](CC(C)C)NC(=O)[C@H](Cc3ccccc3)NC(=O)[C@H](C)NC(=O)[C@H](C)NC(=O)[C@H](Cc3ccccc3C(=O)O)NC(=O)[C@H](CC(=O)O)NC1=O)NC(=O)[C@H](CC(C)(C)C)NC(=O)[C@H](CC(=O)O)NC2=O (single isomer, unassigned) [I-1666] , same question.
Yes

CC(=O)N1CCC[C@]12CC=CCCCC1(CCCC=CCCCOC(=O)N3CC[C@@](C(=O)N[C@@H](Cc4ccsc4)C(=O)N[C@@H](Cc4csc5ccccc45)C(=O)N[C@@H](CCC(N)=O)C(N)=O)(C3)NC(=O)[C@H](CC(N)=O)NC(=O)[C@H](Cc3ccccc3)NC(=O)[C@H](C)NC(=O)[C@H](C)NC(=O)[C@H](CC(N)=O)NC(=O)[C@H](CC(=O)O)NC1=O)NC(=O)[C@H](CC(C)(C)C)NC(=O)[C@H](CC(=O)O)NC2=O (some centres unmarked) [I-836] , same question.
No

CCCC[C@@H]1NC(=O)[C@H](CC(=O)O)NC(=O)[C@]2(CC=CCCCC3(CCCC=CCCCOC(=O)N4CC[C@@](C(=O)N[C@@H](Cc5ccsc5)C(=O)N[C@@H](Cc5csc6ccccc56)C(=O)N[C@@H](CCC(N)=O)C(N)=O)(C4)NC(=O)[C@H](CCCC)NC(=O)[C@H](Cc4ccccc4)NC(=O)[C@H](C)NC(=O)[C@H](C)NC(=O)[C@H](CC(=O)O)NC(=O)[C@H](CC(=O)O)NC3=O)NC1=O)CCCN2C(C)=O (some centres unmarked) [I-1401] , same question.
No
